System: HCC-2998 colon
test: NCI-60 one-dose screen, 48 h
protocolConditions: 10 µM
The panel holds about 83,000 compounds, 20% with a hit somewhere; the sample as a whole holds those more often. The source made the active and inactive calls. How the source made its calls: active means growth percent below 10; inactive means the rest.
Pick one and only one: t (active), f (inactive)

>  <compound>
COc1cc(/C=N/NC(=O)c2ccccc2Nc2cccc(C(F)(F)F)c2)cc(OC)c1OC

>  <class>
f

$$$$
>  <compound>
CC(=O)OCc1cc(-c2nc3ccccc3[nH]c2=O)nn1-c1ccc(Cl)cc1

>  <class>
f

$$$$
>  <compound>
COc1ccc2c(c1)sc1nc(-c3ccccc3)c(-c3ccc(O)c(OC)c3)n12

>  <class>
f

$$$$
>  <compound>
Cc1cc(Cl)nc(N(CCCNc2ccnc3cc(Cl)ccc23)Cc2cccs2)n1

>  <class>
t

$$$$
>  <compound>
O=[N+]([O-])c1cccc(-c2ncc(-c3ccc(Cl)cc3Cl)[nH]2)c1

>  <class>
f

$$$$
>  <compound>
N#CCCN1C/C(=C/c2ccc(Br)cc2)C(=O)/C(=C/c2ccc(Br)cc2)C1

>  <class>
t

$$$$
>  <compound>
O=C1NC(=O)N(Cc2ccccc2)CC1Br (stereo unspecified)

>  <class>
f

$$$$
>  <compound>
c1ccc(CNc2ncnc3scc(-c4cccs4)c23)nc1

>  <class>
f

$$$$
>  <compound>
COc1cc(NC(=O)c2sc3nc4c(cc3c2N)C(O)CCC4)cc(OC)c1 (stereo unspecified)

>  <class>
f

$$$$
>  <compound>
CC(=O)N1C/C(=C/c2ccc(Cl)cc2)C(=O)/C(=C/c2ccc(Cl)cc2)C1

>  <class>
t

$$$$

What outcome does the record of this test show for COc1cc(/C=C2\Oc3cc(OCC(=O)c4ccccc4)ccc3C2=O)cc(OC)c1OC ? f

What outcome does the record of this test show for Nc1c(C(=O)Nc2cccc(F)c2)sc2nc3c(cc12)C(=O)CCC3 ? f

What outcome does the record of this test show for O=C(O)c1ccc(Cl)cc1Nc1ccc(F)cc1 ? f

What outcome does the record of this test show for CCN(CC)CCCC(C)Nc1ccc2ccc(Cl)cc2n1 (stereo unspecified) ? f

What outcome does the record of this test show for CCOCCOCCOCCOCCOCCOCCOCCOCCOCCO (tested in a mixture with another compound) ? t

What outcome does the record of this test show for C=C(C(=O)c1ccccc1)C(NC(C)(C)C)c1ccccc1 (stereo unspecified) ? t

What outcome does the record of this test show for COc1cccc(-c2cc(-c3cccc(NS(C)(=O)=O)c3)nc(N)c2C#N)c1O ? t

* * *

Tested on: ACHN renal
test: NCI-60 one-dose screen, 48 h (100 = growth as untreated, 0 = no growth, -100 = all killed)
protocolConditions: 10 µM
The panel holds about 83,000 compounds, 20% with a hit somewhere; the sample as a whole holds those more often.
endpoint: growth (%)
Please give a number only; it is taken to be in %.

>  <molecule>
N=C(N)c1ccc(-c2ccc(-c3cccs3)o2)cc1

>  <numericValue>
62.7

$$$$
>  <molecule>
O=[N+]([O-])c1ccc(Oc2cc(Cl)c(Cl)cc2Cl)c(C(F)(F)F)c1

>  <numericValue>
96.8

$$$$
>  <molecule>
CC[C@H]1CCC/C=C/[C@@H]2C[C@H](O)C[C@H]2[C@H](O)/C=C/C(=O)O1

>  <numericValue>
0.373

$$$$

Per the reported ACHN renal data, C[N+](C)(C)c1ncnc2nc[nH]c12 has growth of 91.1

Per the reported ACHN renal data, CN(C)CCN1C(=O)c2cccc3c(-c4ccc5ncn(C6CCCCC6)c5c4)ccc(c23)C1=O has growth of 13.8

Per the reported ACHN renal data, Cc1cc(N(CCCNc2ccnc3cc(Cl)ccc23)Cc2cccs2)nc(Cl)n1 has growth of 56.7

Per the reported ACHN renal data, CSc1nn(-c2ccccc2)c2ncnc(Oc3ccc(C)cc3)c12 has growth of 76

Per the reported ACHN renal data, CCCCCCCCN(CCCCCCCC)CCCCCCCCCN1CCCc2cc(OC)ccc21 has growth of 96.5

* * *

System: BT-549 breast
test: NCI-60 one-dose screen, 48 h (100 = growth as untreated, 0 = no growth, -100 = all killed)
protocolConditions: 10 µM
About 83,000 compounds went through this panel and 20% of them were active in at least one assay; those are over-represented in the sample as a whole.
Collected growth values appear next to each entry.
Please give a number only; it is taken to be in %.

The examples below pair each entry with its known result.
>  <molecule>
O=C1OCC2=C1C(c1cccc(Cl)c1)c1cc3c(cc1N2CCO)OCO3 (stereo unspecified)

>  <unit>
%

>  <growth>
59.6

$$$$
>  <molecule>
O=S(=O)(NCCCNc1nccc(-c2c(-c3ccc(F)cc3)nc3sccn23)n1)c1ccc2ccccc2c1

>  <unit>
%

>  <growth>
46.1

$$$$
>  <molecule>
S=C1SCC(c2ccccc2)S1 (stereo unspecified)

>  <unit>
%

>  <growth>
109

$$$$
>  <molecule>
CN(C)c1ccc(N=C2C=CC(=O)c3ccccc32)cc1

>  <unit>
%

>  <growth>
94.5

$$$$
>  <molecule>
CCCCCCCNc1nc(C=O)ncc1-c1ccc(C(F)(F)F)cc1

>  <unit>
%

>  <growth>
99.7

$$$$

Per the reported BT-549 breast data, O=C1C(c2ccccc2)C2C=CC(C2)N1O (stereo unspecified) has growth of 136

Per the reported BT-549 breast data, COc1ccc(-n2c(SCc3cc(OC)c(OC)c(OC)c3)nc3ccc(C)cc3c2=O)cc1 has growth of 71.5

Per the reported BT-549 breast data, COc1cccc(NC(=O)c2sc3nc4c(cc3c2N)C(O)CCC4)c1 (stereo unspecified) has growth of 44.4

* * *

System: SF-539 CNS
test: NCI-60 one-dose screen, 48 h (100 = growth as untreated, 0 = no growth, -100 = all killed)
protocolConditions: 10 µM
About 83,000 compounds went through this panel and 20% of them were active in at least one assay; those are over-represented in the sample as a whole.
endpoint: growth (%)
Please give a number only; it is taken to be in %.

The examples below pair each entry with its known result.
>  <testSmiles>
COc1cc(-c2cc(/C=C3\C(=O)Nc4ccccc43)[nH]n2)cc(OC)c1OC

>  <targetDesc>
SF-539 CNS

>  <growth / %>
67.8

$$$$
>  <testSmiles>
Nc1nc(-c2ccccc2Cl)cc(-c2ccc(Cl)cc2Cl)n1

>  <targetDesc>
SF-539 CNS

>  <growth / %>
72.2

$$$$
>  <testSmiles>
COc1ccc2c(c1)sc1nc(-c3ccccc3)c(-c3cccnc3)n12

>  <targetDesc>
SF-539 CNS

>  <growth / %>
102

$$$$
>  <testSmiles>
C#Cc1ccc(-n2c(/C=C/c3ccc4ccccc4c3)nc3ncccc3c2=O)cc1

>  <targetDesc>
SF-539 CNS

>  <growth / %>
70.5

$$$$
>  <testSmiles>
Cc1ccc(CC#N)cc1C

>  <targetDesc>
SF-539 CNS

>  <growth / %>
87.5

$$$$

Documented growth of Cc1ccc(S(=O)(=O)Oc2ccc3c4c(c(=O)oc3c2)CCCCC4)cc1 : 39.8

Documented growth of COc1ccc(NC(=O)CSc2nc3ccccc3c(=O)n2CCc2ccccc2)cc1 : 79.5

Documented growth of COc1cc(CNCCCCCCN2C(=O)c3cccc4cccc(c34)C2=O)ccc1O : 85.3

* * *

System: U251 CNS
test: NCI-60 one-dose screen, 48 h (100 = growth as untreated, 0 = no growth, -100 = all killed)
protocolConditions: 10 µM
This is part of a sample that, as a whole, favours compounds with a hit. Of some 83,000 tested, about 20% had one in any assay. Calls of active or inactive are those of the source. Rule for the calls: active = growth percent below 10; inactive = the rest.
Collected growth values appear next to each entry.

>  <molecule>
CN1c2ccccc2[C@]2(Cc3ccccc3)Cc3ccccc3N[C@H]12

>  <growth>
106% (inactive)

$$$$
>  <molecule>
COc1ccc2c(c1)N(CCO)C1=C(C(=O)OC1)C2c1cc(OC)c(OC)c(OC)c1 (stereo not given)

>  <growth>
9.9% (active)

$$$$
>  <molecule>
C#Cc1ccc(-n2c(/C=C/c3ccc(O)c(OC)c3)nc3ncccc3c2=O)cc1

>  <growth>
94.1% (inactive)

$$$$
>  <molecule>
O=C1OCC2=C1C(c1ccc(Cl)c(Cl)c1)c1cc3c(cc1N2CCO)OCCO3 (stereo not given)

>  <growth>
18.2% (inactive)

$$$$

Documented growth of CC(=O)/C(=C/c1ccccc1)C(=O)CC(C)C : 63.6% (inactive)

* * *

System: NCI-H322M lung
test: NCI-60 one-dose screen, 48 h (100 = growth as untreated, 0 = no growth, -100 = all killed)
protocolConditions: 10 µM
The panel holds about 83,000 compounds, 20% with a hit somewhere; the sample as a whole holds those more often. Activity calls are given as the source filed them. The calls were made as follows: active = growth percent below 10; inactive = the rest.
endpoint: growth

The examples below pair each entry with its known result.
>  <compound>
O=[N+]([O-])c1cccc(N=Cc2ccc3c(c2)OCO3)c1

>  <growth>
112% (inactive)

$$$$
>  <compound>
COc1ccc(S(=O)(=O)Nc2c(/C=C\c3cc(OC)c(OC)c(OC)c3)ccc(OC)c2O)cc1

>  <growth>
40.5% (inactive)

$$$$
>  <compound>
COc1cc(-c2cc(/C=C3\C(=O)Nc4ccc(Cl)cc43)[nH]n2)cc(OC)c1OC

>  <growth>
51.5% (inactive)

$$$$

Documented growth of CC(C)=NNc1ncnc2c1ncn2C1OC(CO)C(O)C1O (centres undefined) : -1.85% (active)

Documented growth of Nc1ccn(C2CC(O)C(CO)O2)c(=O)n1 (centres undefined) : 223% (inactive)
